Entries and their Emax
target: Delta-type opioid receptor (Homo sapiens, UniProt P41143); assay: Agonist activity at human delta opioid receptor transfected in HN9.10 cells by [35S]GTPgammaS binding assay; format: functional, cell-based
Sequence (P41143 whole entry): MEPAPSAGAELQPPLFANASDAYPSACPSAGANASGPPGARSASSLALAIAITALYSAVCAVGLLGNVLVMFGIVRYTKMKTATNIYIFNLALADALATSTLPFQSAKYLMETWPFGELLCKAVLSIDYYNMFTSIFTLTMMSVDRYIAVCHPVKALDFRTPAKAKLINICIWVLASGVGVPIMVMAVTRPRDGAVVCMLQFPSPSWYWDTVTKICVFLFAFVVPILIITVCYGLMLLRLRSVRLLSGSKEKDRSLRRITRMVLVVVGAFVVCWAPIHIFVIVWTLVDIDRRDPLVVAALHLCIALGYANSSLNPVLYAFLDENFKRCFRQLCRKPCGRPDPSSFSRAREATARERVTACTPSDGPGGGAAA
Non-standard residues stand in square brackets, D forms with d. Residues, ends and D or L forms follow the SMILES beside them. *: point of attachment. OBzl(3,5-(CF3)2) = FC(F)(F)c1cc(CO*)cc(C(F)(F)F)c1
Give just the numeric value; % need not be written.

Example results:
compound	readout label	readout number
C[C@@H](NC(=O)[C@@H](N)Cc1ccc(O)cc1)C(=O)NCC(=O)N[C@@H](Cc1c[nH]c2ccccc12)C(=O)OCc1cc(C(F)(F)F)cc(C(F)(F)F)c1 (H-Y[dA]GW-{OBzl(3,5-(CF3)2)})	Emax	33
Cc1cc(O)cc(C)c1C[C@H](N)C(=O)N[C@H](C)C(=O)N[C@@H](Cc1c[nH]c2ccccc12)C(=O)NCc1cc(C(F)(F)F)cc(C(F)(F)F)c1	Emax	50
C[C@@H](NC(=O)[C@@H](N)Cc1ccc(O)cc1)C(=O)N[C@@H](Cc1c[nH]c2ccccc12)C(=O)OCc1cc(C(F)(F)F)cc(C(F)(F)F)c1	Emax	36

Please find the next compound below.
The reported Emax of the compound C[C@@H](NC(=O)[C@@H](N)Cc1ccc(O)cc1)C(=O)NCC(=O)N[C@@H](Cc1ccc(F)cc1)C(=O)OCc1cc(C(F)(F)F)cc(C(F)(F)F)c1 was 78

* * *

molecular target: Mu-type opioid receptor (Cavia porcellus, UniProt P97266); experiment: Agonist activity at mu opioid receptor in guinea pig ileum assessed as inhibition of electrically-stimulated muscle contraction
Sequence (P97266 whole entry): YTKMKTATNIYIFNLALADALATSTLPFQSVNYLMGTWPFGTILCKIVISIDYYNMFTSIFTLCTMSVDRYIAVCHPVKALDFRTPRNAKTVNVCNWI
Non-standard residues stand in square brackets, D forms with d. Residues, ends and D or L forms follow the SMILES beside them. *: point of attachment. OBzl(3,5-(CF3)2) = FC(F)(F)c1cc(CO*)cc(C(F)(F)F)c1
readout label: pIC50
Keep in mind that pIC50 stands for -log10 of concentration in molar terms.

molecule	readout number
C[C@@H](NC(=O)[C@@H](N)Cc1ccc(O)cc1)C(=O)NCC(=O)N[C@@H](Cc1ccc(F)cc1)C(=O)OCc1cc(C(F)(F)F)cc(C(F)(F)F)c1	6.68

Please find the next molecule below.
The reported pIC50 of the molecule C[C@@H](NC(=O)[C@@H](N)Cc1ccc(O)cc1)C(=O)NCC(=O)N[C@@H](Cc1c[nH]c2ccccc12)C(=O)OCc1cc(C(F)(F)F)cc(C(F)(F)F)c1 (H-Y[dA]GW-{OBzl(3,5-(CF3)2)}) was 6.08

* * *

biological target: Delta-type opioid receptor (Homo sapiens, UniProt P41143); test: Displacement of [3H]-DPDPE from human delta opioid receptor transfected in HN9.10 cells
Non-standard residues stand in square brackets, D forms with d. Residues, ends and D or L forms follow the SMILES beside them. *: point of attachment. OBzl(3,5-(CF3)2) = FC(F)(F)c1cc(CO*)cc(C(F)(F)F)c1
readout label: Ki (µM)
Give just the numeric value; µM need not be written.

compound	readout label	readout number
C[C@@H](NC(=O)[C@@H](N)Cc1ccc(O)cc1)C(=O)NCC(=O)N[C@@H](Cc1ccc(F)cc1)C(=O)OCc1cc(C(F)(F)F)cc(C(F)(F)F)c1	Ki	0.056

Please find the next compound below.
The reported Ki of the compound C[C@@H](NC(=O)[C@@H](N)Cc1ccc(O)cc1)C(=O)NCC(=O)N[C@@H](Cc1c[nH]c2ccccc12)C(=O)OCc1cc(C(F)(F)F)cc(C(F)(F)F)c1 (H-Y[dA]GW-{OBzl(3,5-(CF3)2)}) was 0.31
